# Tested on: Candida albicans
# Procedure Summary: Antifungal activity against Candida albicans ATCC 90028 measured after 36 hrs
# Assay type: functional
# Particulars: ATCC 90028, 36 h
Assign labels as follows, please: yes for MIC below 8 µM; no for MIC equal to or exceeding 8 µM.

Examples from the recorded data:
Input CN(C)CCNC(=O)C(=O)c1c[nH]c2cc(Br)ccc12 ; condition: MIC strictly below 8 µM. Does it hold?
no

Input O=C(NCCCNCCCCCCNCCCNC(=O)C(=O)c1c[nH]c2cc(Br)ccc12)C(=O)c1c[nH]c2cc(Br)ccc12.O=C(O)C(F)(F)F.O=C(O)C(F)(F)F ; condition: MIC strictly below 8 µM. Does it hold?
no

Input O=C(NCCCNCCCCCCCCCCNCCCNC(=O)C(=O)c1c[nH]c2cc(Br)ccc12)C(=O)c1c[nH]c2cc(Br)ccc12.O=C(O)C(F)(F)F.O=C(O)C(F)(F)F ; condition: MIC strictly below 8 µM. Does it hold?
yes

Input O=C(NCCCOCCOCCOCCCNC(=O)C(=O)c1c[nH]c2cc(Br)ccc12)C(=O)c1c[nH]c2cc(Br)ccc12 ; condition: MIC strictly below 8 µM. Does it hold?
no

Input O=C(NCCN1CCOCC1)C(=O)c1c[nH]c2cc(Br)ccc12 ; condition: MIC strictly below 8 µM. Does it hold?
no

Input O=C(NCCCNCCCCCCCCCCCCNCCCNC(=O)C(=O)c1c[nH]c2cc(Br)ccc12)C(=O)c1c[nH]c2cc(Br)ccc12.O=C(O)C(F)(F)F.O=C(O)C(F)(F)F ; condition: MIC strictly below 8 µM. Does it hold?
yes

Input O=C(NCCCNCCCCNCCCNC(=O)C(=O)c1c[nH]c2cc(Br)ccc12)C(=O)c1c[nH]c2cc(Br)ccc12 ; condition: MIC strictly below 8 µM. Does it hold?
no

Input O=C(NCCCCCCCCCCCCNC(=O)C(=O)c1c[nH]c2cc(Br)ccc12)C(=O)c1c[nH]c2cc(Br)ccc12 ; condition: MIC strictly below 8 µM. Does it hold?
no

Input O=C(NCCCNCCCCCCCNCCCNC(=O)C(=O)c1c[nH]c2cc(Br)ccc12)C(=O)c1c[nH]c2cc(Br)ccc12.O=C(O)C(F)(F)F.O=C(O)C(F)(F)F ; condition: MIC strictly below 8 µM. Does it hold?
no

Input O=C(NCCCNCCNC(=O)C(=O)c1c[nH]c2cc(Br)ccc12)C(=O)c1c[nH]c2cc(Br)ccc12 ; condition: MIC strictly below 8 µM. Does it hold?
no

Next:
Input O=C(NCCCCNCCCNC(=O)C(=O)c1c[nH]c2cc(Br)ccc12)C(=O)c1c[nH]c2cc(Br)ccc12 ; condition: MIC strictly below 8 µM. Does it hold?
no

Input O=C(NCCCCNC(=O)C(=O)c1c[nH]c2cc(Br)ccc12)C(=O)c1c[nH]c2cc(Br)ccc12 ; condition: MIC strictly below 8 µM. Does it hold?
no

###

# Tested on: Pseudomonas aeruginosa
# Procedure Summary: Potentiation of doxycycline-induced antibacterial activity against Pseudomonas aeruginosa ATCC 27853 assessed as concentration required to restore 2 ug/ml doxycycline activity measured after 18 hrs
# Type: functional
Readout Name: Activity (µM)
One number for each entry, in µM.

Measured Activity (Pseudomonas aeruginosa), entry O=C(NCCCNCCCCNCCCNC(=O)C(=O)c1c[nH]c2cc(Br)ccc12)C(=O)c1c[nH]c2cc(Br)ccc12 : 6.25

Measured Activity (Pseudomonas aeruginosa), entry O=C(NCCCNCCCCCCNCCCNC(=O)C(=O)c1c[nH]c2cc(Br)ccc12)C(=O)c1c[nH]c2cc(Br)ccc12.O=C(O)C(F)(F)F.O=C(O)C(F)(F)F : 6.52

Now look at this entry.
Measured Activity (Pseudomonas aeruginosa), entry O=C(NCCCNCCCCCCCCNCCCNC(=O)C(=O)c1c[nH]c2cc(Br)ccc12)C(=O)c1c[nH]c2cc(Br)ccc12.O=C(O)C(F)(F)F.O=C(O)C(F)(F)F : 25

###

# System: Erythrocyte
# Procedure Summary: Hemolytic activity against human RBC incubated for 10 mins under shaking condition measured after 1 hr
# Format: ADME, cell-based
Readout Name: HC10 (µM)
Answers are plain numbers, in µM.

Examples from the recorded data:
Measured HC10 (Erythrocyte), entry O=C(NCCCNCCCCCCCCCCCCNCCCNC(=O)C(=O)c1c[nH]c2cc(Br)ccc12)C(=O)c1c[nH]c2cc(Br)ccc12.O=C(O)C(F)(F)F.O=C(O)C(F)(F)F : 2.18

Measured HC10 (Erythrocyte), entry O=C(NCCCNCCCCCCCCCCNCCCNC(=O)C(=O)c1c[nH]c2cc(Br)ccc12)C(=O)c1c[nH]c2cc(Br)ccc12.O=C(O)C(F)(F)F.O=C(O)C(F)(F)F : 7.88

Next:
Measured HC10 (Erythrocyte), entry O=C(NCCCNCCCCCCNCCCNC(=O)C(=O)c1c[nH]c2cc(Br)ccc12)C(=O)c1c[nH]c2cc(Br)ccc12.O=C(O)C(F)(F)F.O=C(O)C(F)(F)F : 18

###

# System: Staphylococcus intermedius
# Procedure Summary: Antibacterial activity against Staphylococcus intermedius 1051997 measured after 18 hrs by broth dilution method
# Assay type: functional
# Particulars: Staphylococcus intermedius, 1051997, 18 h
Readout Name: MIC (µM)
Give bare numbers, in µM.

Examples from the recorded data:
The value of MIC measured for the compound O=C(NCCN1CCOCC1)C(=O)c1c[nH]c2cc(Br)ccc12 turned out to be 12.5

The value of MIC measured for the compound CN(C)CCNC(=O)C(=O)c1c[nH]c2cc(Br)ccc12 turned out to be 12.5

The value of MIC measured for the compound O=C(NCCCCCCCCCCCCNC(=O)C(=O)c1c[nH]c2cc(Br)ccc12)C(=O)c1c[nH]c2cc(Br)ccc12 turned out to be 100

Now look at this entry.
The value of MIC measured for the compound O=C(NCCCNCCCCNCCCNC(=O)C(=O)c1c[nH]c2cc(Br)ccc12)C(=O)c1c[nH]c2cc(Br)ccc12 turned out to be 3.12

###

# Procedure Summary: Cytotoxicity against HEK293 cells measured after 20 hrs by resazurin dye based fluorescence assay
# Format: cell-based, Homo sapiens
# Particulars: human, HEK293 cells
Assign labels as follows, please: 1 (yes) for CC50 at 20 h below 6 µM; 0 (no) for CC50 at 20 h equal to or exceeding 6 µM.

Examples from the recorded data:
Input O=C(NCCCNCCCCNCCCNC(=O)C(=O)c1c[nH]c2cc(Br)ccc12)C(=O)c1c[nH]c2cc(Br)ccc12 ; condition: CC50 at 20 h strictly below 6 µM. Does it hold?
1 (yes)

Input O=C(NCCCCNCCCNC(=O)C(=O)c1c[nH]c2cc(Br)ccc12)C(=O)c1c[nH]c2cc(Br)ccc12 ; condition: CC50 at 20 h strictly below 6 µM. Does it hold?
1 (yes)

Input CN(C)CCNC(=O)C(=O)c1c[nH]c2cc(Br)ccc12 ; condition: CC50 at 20 h strictly below 6 µM. Does it hold?
0 (no)

Input O=C(NCCCNCCCCCCCCCCCCNCCCNC(=O)C(=O)c1c[nH]c2cc(Br)ccc12)C(=O)c1c[nH]c2cc(Br)ccc12.O=C(O)C(F)(F)F.O=C(O)C(F)(F)F ; condition: CC50 at 20 h strictly below 6 µM. Does it hold?
0 (no)

Next:
Input O=C(NCCCCNC(=O)C(=O)c1c[nH]c2cc(Br)ccc12)C(=O)c1c[nH]c2cc(Br)ccc12 ; condition: CC50 at 20 h strictly below 6 µM. Does it hold?
0 (no)

Input O=C(NCCN1CCOCC1)C(=O)c1c[nH]c2cc(Br)ccc12 ; condition: CC50 at 20 h strictly below 6 µM. Does it hold?
0 (no)

Input O=C(NCCCNCCNC(=O)C(=O)c1c[nH]c2cc(Br)ccc12)C(=O)c1c[nH]c2cc(Br)ccc12 ; condition: CC50 at 20 h strictly below 6 µM. Does it hold?
0 (no)

Input O=C(NCCCNCCCCCCCNCCCNC(=O)C(=O)c1c[nH]c2cc(Br)ccc12)C(=O)c1c[nH]c2cc(Br)ccc12.O=C(O)C(F)(F)F.O=C(O)C(F)(F)F ; condition: CC50 at 20 h strictly below 6 µM. Does it hold?
0 (no)

Input O=C(NCCCCCCCCCCCCNC(=O)C(=O)c1c[nH]c2cc(Br)ccc12)C(=O)c1c[nH]c2cc(Br)ccc12 ; condition: CC50 at 20 h strictly below 6 µM. Does it hold?
0 (no)

Input O=C(NCCCOCCOCCOCCCNC(=O)C(=O)c1c[nH]c2cc(Br)ccc12)C(=O)c1c[nH]c2cc(Br)ccc12 ; condition: CC50 at 20 h strictly below 6 µM. Does it hold?
0 (no)

Input O=C(NCCCNCCCCCCNCCCNC(=O)C(=O)c1c[nH]c2cc(Br)ccc12)C(=O)c1c[nH]c2cc(Br)ccc12.O=C(O)C(F)(F)F.O=C(O)C(F)(F)F ; condition: CC50 at 20 h strictly below 6 µM. Does it hold?
0 (no)

Input O=C(NCCCNCCCCCCCCNCCCNC(=O)C(=O)c1c[nH]c2cc(Br)ccc12)C(=O)c1c[nH]c2cc(Br)ccc12.O=C(O)C(F)(F)F.O=C(O)C(F)(F)F ; condition: CC50 at 20 h strictly below 6 µM. Does it hold?
0 (no)
